Below: a set of entries, each annotated with reported Activity.
# Test system: Rattus norvegicus
# Method Notes: Effect on heart rate in anesthetized Wistar rat assessed as Q-T intervals time at 1 mg/kg, iv after 5 mins by electrocardiography
# Format: functional
Measured Attribute: Activity (ms)

COc1ccccc1OCCNCC(O)COc1c(OC)ccc2[nH]ccc12 (racemic) : 107.3
COc1ccccc1OCCNCC(O)COc1ccc(OC)c2[nH]ccc12 (racemic) : 79.2
COc1ccccc1OCCNC[C@@H](O)COc1ccc(OC)c2[nH]ccc12 : 88
COc1ccccc1OCCNC[C@H](O)COc1ccc(OC)c2[nH]ccc12 : 94.8
COc1ccccc1OCCNCC(O)COc1cccc2[nH]ccc12 (racemic) : 69
COc1ccccc1OCCNC[C@H](O)COc1c(OC)ccc2[nH]ccc12 : 111.3
COc1ccccc1OCCNC[C@@H](O)COc1c(OC)ccc2[nH]ccc12 : 106
